This collection of values is drawn from paper PMC5365648.

experimental.protocol: Rat pharmacokinetics, i.v. bolus
Format: in vivo, Sprague-Dawley rats
conditions.used: rat, in vivo, iv, 15 mg/kg, male Sprague-Dawley rats, single 15 mg/kg slow i.v. bolus, plasma, LC-MS/MS, noncompartmental, n = 3 to 5/dose; read-out: CL (clearance)
Protocol: In one of three rat studies reported here, a single 5-, 15-, or 45-mg/kg dose of CD101 was administered by slow i.v. bolus (∼3 min) to Sprague-Dawley rats (n = 3 to 5/dose). […] For each of the pharmacokinetic studies, whole-blood samples (K3EDTA as anticoagulant) were collected and centrifuged within 30 min of collection. […] When necessary, dilutions with blank matrix were made for samples that quantified above the upper limit of quantitation. […]
Starred links: 1 amine or outer side, 2 acyl side, 3 side chain; linkers in the order of their positions; H or OH if unused. Positions of bridges follow the written chain, without caps; N, C: chain ends. Non-standard residues stand in square brackets, D forms with d. Residues, ends and D or L forms follow the SMILES beside them. *: point of attachment. Orn(4R-OH,5R-OCH2CH2NMe3+) = C[N+](C)(C)CCO[C@@H](N[*:3])[C@H](O)C[C@H](N[*:1])C(=O)[*:2]; pTerphenylCO(4''-OnC5H11) = CCCCCOc1ccc(-c2ccc(-c3ccc(C(=O)*)cc3)cc2)cc1; hTyr(3S-OH,4S-OH) = N[C@H](C(=O)O)[C@H](O)[C@@H](O)c1ccc(O)cc1; Pro(3S-OH,4S-Me) = C[C@H]1CN[C@H](C(=O)O)[C@H]1O; Hyp = O=C(O)[C@@H]1C[C@@H](O)CN1
measure.name: clearance (mL/min/kg)
Provide the reading as a plain figure in mL/min/kg.

Query :: clearance lookup needed for CCCCCOc1ccc(-c2ccc(-c3ccc(C(=O)N[C@H]4C[C@@H](O)[C@@H](OCC[N+](C)(C)C)NC(=O)[C@@H]5[C@@H](O)[C@@H](C)CN5C(=O)[C@H]([C@@H](C)O)NC(=O)[C@H]([C@H](O)[C@@H](O)c5ccc(O)cc5)NC(=O)[C@@H]5C[C@@H](O)CN5C(=O)[C@H]([C@@H](C)O)NC4=O)cc3)cc2)cc1 [CD101] ({pTerphenylCO(4''-OnC5H11)}-[Orn(4R-OH,5R-OCH2CH2NMe3+)]T[Hyp][hTyr(3S-OH,4S-OH)]T[Pro(3S-OH,4S-Me)]; lactam 1-C) , thanks.
Result :: 0.431
